Experiment: Stability in buffer at pH 7.4 (HPLC)
Type: physicochemical
Settings: buffer pH 7.4, 37° C.
# maps each entry to its % Test Compound after 24 h [F(t = 24 h) × 100/F(t = 0 h)]
PARAMETER_MEASURED: % Test Compound after 24 h [F(t = 24 h) × 100/F(t = 0 h)] (%)

| MOLECULE | UNIT_OF_MEASURE | ASSAY_VALUE |
| --- | --- | --- |
| COc1cc(S(C)(=O)=O)ccc1N(C(=O)OC(OC(=O)[C@@H](N)C(C)C)C(C)C)c1nc2ccc(-c3ccc(NC(=O)[C@H](C)c4ccc(F)cc4)cc3)cn2n1.Cl (mixture of isomers) | % | 17 |
| COc1cc(S(C)(=O)=O)ccc1N(C(=O)OCOC(=O)C(C)(C)CN)c1nc2ccc(-c3ccc(NC(=O)[C@H](C)c4ccc(F)cc4)cc3)cn2n1.O=C(O)C(F)(F)F | % | 0.0 |
| COc1cc(S(C)(=O)=O)ccc1N(C(=O)OC(C)OC(=O)[C@@H](N)C(C)C)c1nc2ccc(-c3ccc(NC(=O)[C@H](C)c4ccc(F)cc4)cc3)cn2n1.Cl (mixture of isomers) | % | 0.0 |
| COc1cc(S(C)(=O)=O)ccc1N(C(=O)OC(OC(=O)[C@@H](N)C(C)(C)C)C(C)C)c1nc2ccc(-c3ccc(NC(=O)[C@H](C)c4ccc(F)cc4)cc3)cn2n1.Cl (mixture of isomers) | % | 21 |
| CC[C@H](C)[C@H](N)C(=O)OC(C)OC(=O)N(c1nc2n(n1)CC(c1ccc(NC(=O)[C@H](C)c3ccc(F)cc3)cc1)C=C2)c1ccc(S(C)(=O)=O)cc1OC.Cl (single isomer, unassigned) | % | 0.0 |
| COc1cc(S(C)(=O)=O)ccc1N(C(=O)OCOC(=O)[C@@H](NC(=O)[C@@H](N)CCCCN)C(C)C)c1nc2ccc(-c3ccc(NC(=O)[C@H](C)c4ccc(F)cc4)cc3)cn2n1.Cl.Cl | % | 0.0 |
| CNCCCC(=O)N(c1nc2ccc(-c3ccc(NC(=O)[C@H](C)c4ccc(F)cc4)cc3)cn2n1)c1ccc(S(C)(=O)=O)cc1OC.Cl | % | 21 |
| CN[C@H](C(=O)OCOC(=O)N(c1nc2ccc(-c3ccc(NC(=O)[C@H](C)c4ccc(F)cc4)cc3)cn2n1)c1ccc(S(C)(=O)=O)cc1OC)C(C)C.Cl | % | 0.0 |
| COc1cc(S(C)(=O)=O)ccc1N(C(=O)OCOC(=O)[C@@H](N)C(C)(C)C)c1nc2ccc(-c3ccc(NC(=O)[C@H](C)c4ccc(F)cc4)cc3)cn2n1.Cl | % | 0.0 |
| C[C@@H](C(=O)Nc1ccc(-c2ccc3nc(N(C(=O)OCOC(=O)[C@@H](N)C(C)(C)C)c4ccc(S(C)(=O)=O)cc4OCC(F)(F)F)nn3c2)cc1)c1ccc(F)cc1.Cl | % | 0.0 |

====

Molecular target: human kinase Mps-1 (Homo sapiens, UniProt P33981)
Construct: N-terminally GST-tagged human full length recombinant Mps-1 kinase; GST (N); purchased Invitrogen, Karslruhe, Germany PV4071
Sequence (P33981 1-857): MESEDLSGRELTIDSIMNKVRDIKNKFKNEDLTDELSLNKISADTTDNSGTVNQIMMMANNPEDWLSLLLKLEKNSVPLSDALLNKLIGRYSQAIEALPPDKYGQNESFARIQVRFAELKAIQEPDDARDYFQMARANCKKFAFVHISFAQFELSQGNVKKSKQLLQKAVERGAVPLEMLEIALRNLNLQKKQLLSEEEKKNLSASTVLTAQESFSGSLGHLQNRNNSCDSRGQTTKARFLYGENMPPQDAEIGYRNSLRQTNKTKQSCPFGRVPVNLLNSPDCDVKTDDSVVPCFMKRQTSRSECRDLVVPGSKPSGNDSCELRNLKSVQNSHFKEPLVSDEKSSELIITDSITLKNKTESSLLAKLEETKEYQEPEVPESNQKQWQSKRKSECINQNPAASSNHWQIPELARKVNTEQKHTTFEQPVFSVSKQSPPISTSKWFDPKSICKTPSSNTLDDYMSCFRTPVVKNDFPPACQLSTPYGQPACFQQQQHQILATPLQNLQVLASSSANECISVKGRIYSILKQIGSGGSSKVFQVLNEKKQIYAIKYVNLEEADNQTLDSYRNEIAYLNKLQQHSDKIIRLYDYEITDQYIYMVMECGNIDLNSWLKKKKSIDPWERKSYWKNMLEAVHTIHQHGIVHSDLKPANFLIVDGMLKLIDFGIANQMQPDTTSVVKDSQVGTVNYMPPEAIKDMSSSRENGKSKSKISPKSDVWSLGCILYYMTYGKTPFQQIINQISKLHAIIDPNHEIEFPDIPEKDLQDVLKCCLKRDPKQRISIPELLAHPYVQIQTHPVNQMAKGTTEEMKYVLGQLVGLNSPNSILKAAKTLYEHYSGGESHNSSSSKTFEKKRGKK
Assay: Mps-1 kinase assay (TR-FRET) with 10 μM ATP
Assay type: biochemical
Conditions: Mps-1 Inhibition, IC50 (Assay with 10 μM ATP), comparison table with comparative examples
pIC50: −log10 of the molar value.

| COMPOUND | TARGET_ENTITY | pIC50 |
| --- | --- | --- |
| COc1cc(C(=O)N2CCC2)ccc1Nc1nc2ccc(-c3ccc(NC(=O)[C@H](C)c4ccc(F)cc4)cc3)cn2n1 [Compound A4] | human kinase Mps-1 (Homo sapiens, UniProt P33981) | > 9.00 |
| C[C@@H](C(=O)Nc1ccc(-c2ccc3nc(Nc4ccc(S(C)(=O)=O)cc4OCC(F)(F)F)nn3c2)cc1)c1ccc(F)cc1 [Compound A2] | human kinase Mps-1 (Homo sapiens, UniProt P33981) | > 9.00 |
| C[C@@H](C(=O)Nc1ccc(-c2ccc3nc(Nc4ccc(C(=O)N5CC(F)C5)cc4OCC(F)(F)F)nn3c2)cc1)c1ccc(F)cc1 [Compound A5] | human kinase Mps-1 (Homo sapiens, UniProt P33981) | > 9.00 |
